The molecules listed here are annotated with their TGI.
System: LXFL 529 NSCLC
Assay: NCI tumour cell line growth inhibition, 48 h

These solved cases illustrate the format of a correct answer.
[
  {
    "smiles.str": "CCOC(=O)CC(=O)ON(C)C(C)=O",
    "experimental.endpoint": "TGI",
    "recorded.value": "> 100 µM"
  },
  {
    "smiles.str": "CC1=NS(=O)(=O)c2ccccc2N1",
    "experimental.endpoint": "TGI",
    "recorded.value": "> 100 µM"
  },
  {
    "smiles.str": "Clc1ccc(C(c2ccc(Cl)cc2)c2ccccn2)cc1",
    "experimental.endpoint": "TGI",
    "recorded.value": "35.3 µM"
  }
]

Problem: Form field - read-out: TGI; system: LXFL 529 NSCLC; submitted item: O=c1cc(-c2ccccc2)oc2cc(OCCCOc3ccc4c(=O)cc(-c5ccccc5)oc4c3)ccc12
Solution: > 100 µM

====

System: SW-620 colon
Experiment: NCI tumour cell line growth inhibition, 48 h
Listing of recorded TGI by entry.

[
  {
    "molecule": "NS(=O)(=O)c1cc2c(cc1Cl)NC(CCC(=O)O)=NS2(=O)=O",
    "TGI": "> 100 µM"
  },
  {
    "molecule": "CCN1c2ccccc2C(C(SC)S(=O)(=O)c2ccc(C)cc2)c2c1[nH]c(=O)n(C)c2=O (stereo not drawn)",
    "TGI": "> 100 µM"
  },
  {
    "molecule": "CC(C)C(C)/C=C\\C(C)C1CCC2C3=CC=C4CC(O)CCC4(C)C3CCC21C (stereo not drawn)",
    "TGI": "> 72.3 µM"
  }
]

Problem: # lookup: TGI of CC1(C)C2CCC(=O)C1CC2 (stereo not drawn)
Solution: > 100 µM

Problem: Another molecule: O=S(=O)(CCn1c(Sc2ccccc2)c(Sc2ccccc2)c2ccccc21)c1ccccc1
Solution: > 100 µM

Problem: Note, next up: O=C1c2cc3c(cc2-c2c1c1ccc(F)cc1c(=O)n2CCCNCCO)OCO3
Solution: 1 µM

Problem: Entry to check: OCC#Cc1ccccc1C#Cc1ccccc1
Solution: 43.6 µM

Problem: Now this one: NS(=O)(=O)c1cc(Br)c(N=Nc2ccc(O)c3ncccc23)c(Br)c1
Solution: > 100 µM

Problem: Same lookup for COc1cccc2c(=O)oc(-c3ccc(C(C)(C)C)cc3)nc12 , please.
Solution: > 100 µM

Problem: What do we get for CCOC(=O)c1nc2c(nc1C(=O)OCC)C(=O)c1ccccc1C2=O ?
Solution: 3.77 µM

Problem: Item: CSc1nc(NC2OCC(OC(C)=O)C(OC(C)=O)C2OC(C)=O)c(N=CC=Nc2c(NC3OCC(OC(C)=O)C(OC(C)=O)C3OC(C)=O)nc(SC)[nH]c2=O)c(=O)[nH]1 (stereo not drawn)
Solution: > 100 µM

Problem: Input Cc1ccccc1S(=O)(=O)OC1NS(=O)(=O)c2ccccc21 (stereo not drawn)
Solution: > 100 µM

Problem: // next record Cc1cc2c3c(nc4ccccc42)C(=O)c2ccccc2-c3n1
Solution: 35.9 µM

Problem: Entry to check: OCCc1ccsc1-c1sc(-c2cc(CCO)c(-c3sccc3CCO)s2)cc1CCO
Solution: > 100 µM

Problem: Then what about the molecule O=C1NCCN1/N=C/c1c(Cl)n(-c2ccccc2)c2ccccc12 ?
Solution: 53.4 µM

Problem: Try this molecule too: O=C(/C=C/c1ccncc1)c1cc(Cl)ccc1O
Solution: 30.5 µM

Problem: Same again, this time with CCOC(=O)Cn1c(=O)c2nc(SC)sc2n(-c2ccccc2)c1=O
Solution: > 100 µM

Problem: Here is the next molecule: O=C1OC(O)[C@@H]2[C@H]1[C@H]1CC[C@@H]2O1 (stereo partly drawn)
Solution: > 100 µM

Problem: Moving on to the next molecule: CC1=NS(=O)(=O)c2ccccc2N1
Solution: > 100 µM

Problem: Proceed to CC(C)=Cc1cc(C(=O)Nc2ccc(Cl)c(Cl)c2)nc(N)n1
Solution: > 100 µM
